src = ChEMBL document CHEMBL1137737

Entries and their measured zone of inhibition at 100 µg/disc follow.
# System: Proteus vulgaris
# ASSAY SUMMARY: Antibacterial activity against Proteus vulgaris NCIM 2027 at 100 ug/disk after 24 hrs by agar disc-diffusion method
# Format: functional
# CONDITION DESCRIPTION: NCIM 2027, 24 h, read-out: DIZ
Report field: quantity (unit follows the number).

Consider the following illustrative entries.
Nn1c(CS(=O)(=O)c2ccccc2)nnc1-c1ccccc1 | 16 mm
O=S(=O)(Cc1ccc(Cl)cc1)Cc1nnc(-c2ccccc2)s1 | 17 mm
O=S(=O)(Cc1nnc(-c2ccccc2Cl)o1)c1ccccc1 | 14 mm
O=S(=O)(Cc1ccc(Cl)cc1)Cc1nnc(-c2ccccc2Cl)o1 | 15 mm
Nn1c(CS(=O)(=O)c2ccc(Cl)cc2)nnc1-c1ccccc1Cl | 19 mm

Form field zone of inhibition at 100 µg/disc, entry "O=S(=O)(Cc1ccc(Cl)cc1)Cc1nnc(-c2ccccc2Cl)s1" : 20 mm

Form field zone of inhibition at 100 µg/disc, entry "Nn1c(CS(=O)(=O)Cc2ccc(Cl)cc2)nnc1-c1ccccc1Cl" : 31 mm

Form field zone of inhibition at 100 µg/disc, entry "O=S(=O)(Cc1nnc(-c2ccccc2)o1)c1ccc(Cl)cc1" : 12 mm

Form field zone of inhibition at 100 µg/disc, entry "Nn1c(CS(=O)(=O)Cc2ccccc2)nnc1-c1ccccc1" : 17 mm

Form field zone of inhibition at 100 µg/disc, entry "O=S(=O)(Cc1ccccc1)Cc1nnc(-c2ccccc2)o1" : 12 mm

Form field zone of inhibition at 100 µg/disc, entry "Nn1c(CS(=O)(=O)c2ccccc2)nnc1-c1ccccc1Cl" : 16 mm

====

Entries and their measured MIC follow.
# System: Bacillus subtilis
# ASSAY SUMMARY: Antibacterial activity against Bacillus subtilis NCIM 2063 after 24 hrs by microdilution susceptibility method
# Format: functional
# CONDITION DESCRIPTION: NCIM 2063, 24 h
Answer in µg/mL, number only, no unit symbol.

Form field MIC, entry "O=S(=O)(Cc1ccccc1)Cc1nnc(-c2ccccc2Cl)s1" : 200

Form field MIC, entry "Nn1c(CS(=O)(=O)Cc2ccccc2)nnc1-c1ccccc1" : 400

Form field MIC, entry "O=S(=O)(Cc1nnc(-c2ccccc2Cl)s1)c1ccc(Cl)cc1" : 200

Form field MIC, entry "O=S(=O)(Cc1nnc(-c2ccccc2)s1)c1ccc(Cl)cc1" : 400

Form field MIC, entry "Nn1c(CS(=O)(=O)c2ccc(Cl)cc2)nnc1-c1ccccc1Cl" : 400

Form field MIC, entry "Nn1c(CS(=O)(=O)Cc2ccc(Cl)cc2)nnc1-c1ccccc1Cl" : 25

Form field MIC, entry "O=C(N[C@H](CO)[C@H](O)c1ccc([N+](=O)[O-])cc1)C(Cl)Cl" : 6.25

Form field MIC, entry "O=S(=O)(Cc1nnc(-c2ccccc2Cl)s1)c1ccccc1" : 400

Form field MIC, entry "O=S(=O)(Cc1ccccc1)Cc1nnc(-c2ccccc2)s1" : 200

Form field MIC, entry "Nn1c(CS(=O)(=O)c2ccccc2)nnc1-c1ccccc1Cl" : 200

Form field MIC, entry "O=S(=O)(Cc1ccc(Cl)cc1)Cc1nnc(-c2ccccc2)s1" : 200

Form field MIC, entry "O=S(=O)(Cc1nnc(-c2ccccc2Cl)o1)c1ccc(Cl)cc1" : 400

Form field MIC, entry "O=S(=O)(Cc1ccc(Cl)cc1)Cc1nnc(-c2ccccc2Cl)o1" : 400
